# TARGET OF ASSAY: DPP4 (Homo sapiens, UniProt P27487)
# Sequence (P27487 whole entry): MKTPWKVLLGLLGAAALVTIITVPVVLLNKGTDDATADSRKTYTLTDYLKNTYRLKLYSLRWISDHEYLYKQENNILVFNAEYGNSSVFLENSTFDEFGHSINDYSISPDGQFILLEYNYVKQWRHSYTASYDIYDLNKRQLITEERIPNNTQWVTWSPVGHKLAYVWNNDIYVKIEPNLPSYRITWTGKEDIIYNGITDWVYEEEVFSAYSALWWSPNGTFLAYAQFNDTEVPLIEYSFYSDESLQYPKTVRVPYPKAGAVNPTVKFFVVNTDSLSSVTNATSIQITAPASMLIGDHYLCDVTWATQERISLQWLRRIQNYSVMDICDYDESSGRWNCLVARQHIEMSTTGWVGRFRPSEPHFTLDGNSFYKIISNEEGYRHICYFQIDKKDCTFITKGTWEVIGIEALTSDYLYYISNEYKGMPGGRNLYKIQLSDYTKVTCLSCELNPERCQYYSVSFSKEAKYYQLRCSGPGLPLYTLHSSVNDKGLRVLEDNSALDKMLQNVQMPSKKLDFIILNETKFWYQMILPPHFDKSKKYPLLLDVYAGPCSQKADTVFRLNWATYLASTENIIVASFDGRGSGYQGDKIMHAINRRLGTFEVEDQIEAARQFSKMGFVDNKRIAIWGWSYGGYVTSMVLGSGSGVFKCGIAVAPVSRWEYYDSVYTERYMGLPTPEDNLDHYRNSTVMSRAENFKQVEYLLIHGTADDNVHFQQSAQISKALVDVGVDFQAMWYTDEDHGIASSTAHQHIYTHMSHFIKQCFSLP
# ASSAY COMMENT: DPP4 inhibition, fluorogenic substrate H-Gly-Pro-AMC
# Assay type: biochemical
# Parameters: purchased R&D Systems
# CONDITION INFO: recombinant human DPP4
MEASURED PROPERTY: IC50 (µM)
Write it as a number; the unit µM goes unstated.

`N#C[C@@H]1CCCN1C(=O)CN1CCC(Nc2ccc(C(=O)Nc3cccnc3)c3ncccc23)CC1` has a reported IC50 of 17.4

# IC50 (compound: `Cc1cccc2c(N[C@@H]3CCN(CC(=O)N4C[C@@H](F)C[C@H]4C#N)C3)ccnc12` ) is 12.5

Looking up `CCOc1ccc(N[C@H]2CCN(CC(=O)N3CCC[C@H]3C#N)C2)c2cccnc12` , I see its IC50 listed as 11

The compound identified as `CN(Cc1ccccc1)C(=O)c1ccc(N[C@H]2CCN(CC(=O)N3CCC[C@H]3C#N)C2)c2cccnc12` registered its IC50 at 18.5

What the record says about `N#C[C@@H]1C[C@H](F)CN1C(=O)CN1CCC(Nc2cccc3ncc(Cl)cc23)CC1` : IC50 is 7.54

Short answer for `N#C[C@@H]1C[C@H](F)CN1C(=O)CN1CC[C@H](Nc2ccc(C(F)(F)F)c3ncccc23)C1` : IC50 was 1.24

Briefly, IC50 measured for `Cc1cc(N[C@@H]2CCN(CC(=O)N3C[C@@H](F)C[C@H]3C#N)C2)cc2cccnc12` : 1.74

###

# TARGET OF ASSAY: DPP4 (Homo sapiens, UniProt P27487)
# ASSAY COMMENT: DPP4 inhibition, fluorogenic substrate H-Gly-Pro-AMC
# Type: biochemical
# Design: purchased R&D Systems
# CONDITION INFO: recombinant human DPP4
Could you please report measured IC50 for the items listed next?
The reply should be a number in µM, with the unit left off.

Lab note: `CNC(=O)c1ccc(NC2CCN(CC(=O)N3CCC[C@H]3C#N)CC2)c2cccnc12` gave IC50 of 6.04

Sure, the documented IC50 for `N#C[C@@H]1C[C@H](F)CN1C(=O)CN1CC[C@H](Nc2ccc3cccnc3c2)C1` is 2.31

Entry `COc1cnc2cccc(N[C@H]3CCN(CC(=O)N4C[C@@H](F)C[C@H]4C#N)C3)c2c1` , IC50 reported as 4.71

###

# TARGET OF ASSAY: Recombinant human FAP (Homo sapiens, UniProt Q12884)
# Construct: purchased R&D systems
# Sequence (Q12884 whole entry): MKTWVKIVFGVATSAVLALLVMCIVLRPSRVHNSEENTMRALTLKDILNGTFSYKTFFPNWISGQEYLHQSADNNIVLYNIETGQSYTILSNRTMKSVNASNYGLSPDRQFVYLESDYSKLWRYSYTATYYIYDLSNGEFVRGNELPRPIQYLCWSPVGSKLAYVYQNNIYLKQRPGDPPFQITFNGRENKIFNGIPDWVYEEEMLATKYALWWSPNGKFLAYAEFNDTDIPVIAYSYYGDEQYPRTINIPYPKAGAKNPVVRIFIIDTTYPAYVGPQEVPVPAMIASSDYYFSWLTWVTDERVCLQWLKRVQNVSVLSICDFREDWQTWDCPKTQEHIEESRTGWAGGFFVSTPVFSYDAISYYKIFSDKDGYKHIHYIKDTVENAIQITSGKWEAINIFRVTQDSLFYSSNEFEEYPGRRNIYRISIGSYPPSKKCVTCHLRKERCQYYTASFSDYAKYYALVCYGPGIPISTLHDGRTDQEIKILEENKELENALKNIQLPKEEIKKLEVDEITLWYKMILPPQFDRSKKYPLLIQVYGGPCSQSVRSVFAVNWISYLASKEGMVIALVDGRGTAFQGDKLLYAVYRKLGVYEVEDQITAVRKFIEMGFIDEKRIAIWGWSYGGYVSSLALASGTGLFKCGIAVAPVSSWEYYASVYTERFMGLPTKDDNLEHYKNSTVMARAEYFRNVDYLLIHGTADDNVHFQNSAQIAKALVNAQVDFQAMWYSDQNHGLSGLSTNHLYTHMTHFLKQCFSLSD
# ASSAY COMMENT: FAP FRET assay, FGF21-sequence FRET peptide substrate
# Type: biochemical
# CONDITION INFO: FRET peptide with human FGF21 sequence, 6 μM, 37° C.
Exercise: state measured IC50 for each of the compounds provided.

// recorded IC50 for `Cc1ccc2c(OC3CCN(CC(=O)N4C[C@@H](F)C[C@H]4C#N)CC3)ccnc2c1` : 19.8 nM

Recorded result, `CC(=O)Nc1ccc(N[C@H]2CCN(CC(=O)N3C[C@@H](F)C[C@H]3C#N)C2)c2cccnc12` , IC50: 2.9 nM

What the record says about `Cc1ccc2nccc(N[C@@H]3CCN(CC(=O)N4C[C@@H](F)C[C@H]4C#N)C3)c2c1` : IC50 is 23.9 nM

Short answer for `N#C[C@@H]1CCCN1C(=O)CN1CC[C@@H](Nc2ccc(OC(F)(F)F)c3ncccc23)C1` : IC50 was 2.3 nM

###

# TARGET OF ASSAY: recombinant human DPP9 (Homo sapiens, UniProt Q86TI2)
# Construct: purchased R&D Systems
# Sequence (Q86TI2 whole entry): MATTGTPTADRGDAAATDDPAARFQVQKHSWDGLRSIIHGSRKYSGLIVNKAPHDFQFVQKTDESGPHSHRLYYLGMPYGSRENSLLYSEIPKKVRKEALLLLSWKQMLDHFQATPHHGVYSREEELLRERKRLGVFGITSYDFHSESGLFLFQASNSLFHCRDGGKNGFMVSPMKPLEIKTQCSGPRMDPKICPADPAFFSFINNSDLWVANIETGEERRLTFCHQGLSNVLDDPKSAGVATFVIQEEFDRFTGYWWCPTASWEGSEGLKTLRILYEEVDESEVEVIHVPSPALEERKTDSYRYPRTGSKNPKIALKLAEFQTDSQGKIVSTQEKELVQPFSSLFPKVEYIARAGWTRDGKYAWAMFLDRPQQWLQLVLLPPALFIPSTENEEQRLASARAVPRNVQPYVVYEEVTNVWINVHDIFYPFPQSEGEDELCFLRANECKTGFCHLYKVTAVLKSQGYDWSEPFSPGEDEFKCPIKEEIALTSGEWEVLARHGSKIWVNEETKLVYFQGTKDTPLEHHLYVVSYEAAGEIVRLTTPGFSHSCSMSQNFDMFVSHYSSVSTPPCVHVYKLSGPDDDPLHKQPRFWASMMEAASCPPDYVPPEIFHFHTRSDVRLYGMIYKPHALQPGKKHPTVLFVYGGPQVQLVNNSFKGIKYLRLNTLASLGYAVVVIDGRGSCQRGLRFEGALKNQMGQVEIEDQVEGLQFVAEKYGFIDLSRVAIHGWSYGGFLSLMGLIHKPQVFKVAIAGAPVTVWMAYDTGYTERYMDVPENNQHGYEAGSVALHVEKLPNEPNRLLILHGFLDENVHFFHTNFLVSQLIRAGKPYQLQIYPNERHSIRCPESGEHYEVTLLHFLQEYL
# ASSAY COMMENT: DPP9 inhibition, fluorogenic substrate H-Gly-Pro-AMC
# Format: biochemical
# CONDITION INFO: 25° C., H-Gly-Pro-AMC substrate
MEASURED PROPERTY: IC50 (µM)
// return numeric value only (unit: µM, not printed)

Item: `N#C[C@@H]1CC(F)(F)CN1C(=O)CN1CC[C@H](Nc2ccnc3ccccc23)C1` | IC50: 12.8

IC50 in this record for `N#C[C@@H]1CC(F)(F)CN1C(=O)CN1CC[C@H](Oc2cccc3cnccc23)C1` : 10.3

The measured IC50 associated with `N#C[C@@H]1CCCN1C(=O)CN1CC[C@H](Oc2cccc3cccnc23)C1` reads 15.7

Reported IC50 for `CN(c1cccc2ncccc12)[C@@H]1CCN(CC(=O)N2CCC[C@H]2C#N)C1` was 89

Just so you know, measured IC50 for `N#C[C@@H]1CCCN1C(=O)CN1CC[C@H](NC(=O)c2ccc3ccoc3c2)C1` came out at 26.5

IC50 in this record for `N#C[C@@H]1CC(F)(F)CN1C(=O)CN1CC[C@H](Nc2ccc3ccccc3c2)C1` : 48.8

Recorded result, `Cc1c(N(C)[C@H]2CCN(CC(=O)N3CCC[C@H]3C#N)C2)cnc2ccccc12` , IC50: 49.1

Sample `N#C[C@@H]1CC(F)(F)CN1C(=O)CN1CC[C@H](Oc2ccnc3cc(Cl)ccc23)C1` ; IC50 observed: 13.5

Value of measured IC50 for the entry `COc1cc(NC2CCN(CC(=O)N3CCC[C@H]3C#N)CC2)c2cccnc2c1` : 82.7

Sample `N#C[C@@H]1CC(F)(F)CN1C(=O)CN1CC[C@H](Nc2cnc3ccccc3c2)C1` ; IC50 observed: 5.71

The molecule listed as `N#C[C@@H]1C[C@H](F)CN1C(=O)CN1CCC(Oc2ccnc3ccc(Cl)cc23)CC1` shows IC50 equal to 23.7

Form field IC50, entry `N#C[C@@H]1C[C@H](F)CN1C(=O)CN1CCC(Nc2cccc3ncccc23)CC1` : 3.97

In plain terms, `N#C[C@@H]1CC(F)(F)CN1C(=O)CN1CC[C@H](Nc2ccccc2-c2ccccc2)C1` has a documented IC50 of 56.5

Just so you know, measured IC50 for `N#C[C@@H]1CC(F)(F)CN1C(=O)CN1CC[C@H](Oc2cccc3ncccc23)C1` came out at 12.5

###

# TARGET OF ASSAY: recombinant human DPP9 (Homo sapiens)
# Construct: purchased R&D Systems
# ASSAY COMMENT: DPP9 inhibition, fluorogenic substrate H-Gly-Pro-AMC
# Format: biochemical
# CONDITION INFO: recombinant human DPP9
MEASURED PROPERTY: pIC50
FYI, pIC50 means -log10 of a concentration in mol per litre.

pIC50 measured on `Cc1cnc2ccc(N[C@@H]3CCN(CC(=O)N4C[C@@H](F)C[C@H]4C#N)C3)cc2c1` = 6.18

compound `N#C[C@@H]1C[C@H](F)CN1C(=O)CN1CC[C@H](Nc2ccc(C(=O)Nc3ccncc3)c3ncccc23)C1` , pIC50 observed: 6.43

pIC50 recorded for this compound, `N#C[C@@H]1C[C@H](F)CN1C(=O)CN1CCC(Oc2ccnc3ccc(C(F)(F)F)cc23)CC1` , is 4.53

For this compound ( `N#C[C@@H]1C[C@H](F)CN1C(=O)CN1CC[C@@H](Nc2cc(Cl)c3ncccc3c2)C1` ), measured pIC50 is 6.20

Looking up `N#C[C@@H]1C[C@H](F)CN1C(=O)CN1CCC(Nc2cccc3ncc(F)cc23)CC1` , I see its pIC50 listed as 5.30

compound `Cc1cccc2c(NC3CCN(CC(=O)N4CCC[C@H]4C#N)CC3)nc(Cl)nc12` , pIC50 observed: 4.50

Sample `N#C[C@@H]1C[C@H](F)CN1C(=O)CN1CC[C@@H](Nc2ccnc3ccccc23)C1` ; pIC50 observed: 5.57

Field pIC50 (entry `N#C[C@@H]1CCCN1C(=O)CN1CC[C@@H](Nc2cc(F)cc3ncccc23)C1` ) reads 4.62

###

# TARGET OF ASSAY: recombinant human DPP7 (Homo sapiens, UniProt Q9UHL4)
# Construct: purchased R&D Systems
# ASSAY COMMENT: DPP7 inhibition, fluorogenic substrate Lys-Pro-AMC
# Assay type: biochemical
# CONDITION INFO: recombinant human DPP7
MEASURED PROPERTY: pIC50
pIC50 field: float, defined as -log10 of concentration (mol/L).

Per the record, N#C[C@@H]1CCCN1C(=O)CN1CCC(NC(=O)c2cccc3cccnc23)CC1 [Example 301] has pIC50 of 5.81

The reported pIC50 of the compound CCOc1ccc(N[C@H]2CCN(CC(=O)N3C[C@@H](F)C[C@H]3C#N)C2)c2cccnc12 [Example 275] was 7.04

response.value for CC(=O)Nc1ccc(N[C@H]2CCN(CC(=O)N3C[C@@H](F)C[C@H]3C#N)C2)c2cccnc12 [Example 297] (field: pIC50) = 7.87

The compound listed as COc1ccnc2ccc(N[C@@H]3CCN(CC(=O)N4C[C@@H](F)C[C@H]4C#N)C3)cc12 [Example 212] has a reported pIC50 of 6.69

Reported pIC50 of N#C[C@@H]1C[C@H](F)CN1C(=O)CN1CC[C@H](Nc2ccc(C(=O)Nc3ccncc3)c3ncccc23)C1 [Example 292] : 6.79

N#C[C@@H]1C[C@H](F)CN1C(=O)CN1CCC(Nc2cccc3c(Cl)nccc23)CC1 [Example 351] has a reported pIC50 of 6.07

Item: CN(c1cnc2ccccc2c1)C1CCN(CC(=O)N2C[C@@H](F)C[C@H]2C#N)CC1 [Example 316] | pIC50: 5.73

Looking up Cc1cncc2cccc(NC3CCN(CC(=O)N4C[C@@H](F)C[C@H]4C#N)CC3)c12 [Example 354] , I found its pIC50 recorded as 6.37

# compound N#C[C@@H]1C[C@H](F)CN1C(=O)CN1CC[C@H](Nc2ccc(OC(F)(F)F)c3ncccc23)C1 [Example 266] ; its pIC50 = 5.97

Measured pIC50, N#C[C@@H]1C[C@H](F)CN1C(=O)CN1CC[C@@H](Nc2cc(Cl)c3ncccc3c2)C1 [Example 215] : 6.26

Memo: N#C[C@@H]1C[C@H](F)CN1C(=O)CN1CCC(Nc2ccc(C(=O)Nc3ccon3)c3ncccc23)CC1 [Example 407] , reported pIC50: 6.40

The measured pIC50 associated with COc1cccc2c(OC3CCN(CC(=O)N4C[C@@H](F)C[C@H]4C#N)CC3)ccnc12 [Example 438] reads 5.45

In plain terms, Cc1cccc2c(OC3CCN(CC(=O)N4C[C@@H](F)C[C@H]4C#N)CC3)ccnc12 [Example 439] has a documented pIC50 of 5.51

The recorded pIC50 for N#C[C@@H]1CCCN1C(=O)CN1CC[C@H](Nc2ccc(F)c3ncccc23)C1 [Example 244] is 5.04

Entry CN(c1ccc(F)c2ncccc12)[C@H]1CCN(CC(=O)N2C[C@@H](F)C[C@H]2C#N)C1 [Example 158] , pIC50 reported as 5.31

Numbers sourced from patent US11655235B2.
